The following compounds are listed with their measured pEC50 values.
# assayTarget: UniProt P43220
# assayRemarks: GLP-1R agonist cAMP stimulation assay (HTRF cAMP)
# experimentalSetup: HEK293 cell line expressing GLP-1 target; HTRF cAMP agonist mode, 30 min at RT
On this scale, pEC50 is minus log10 of a concentration expressed in M (mol/L).

# example entries with known answers
compound: Cc1n[nH]c2c(F)cc(C(=O)Nc3ccc4c(c3)nc(CN3CCC(c5cccc(OCc6cc(F)c(C#N)s6)n5)CC3)n4C[C@@H]3CCO3)cc12 [Compound 374]
pEC50: 9.26

compound: O=C(Nc1ccc2c(c1)C1(CC1)C(=O)N2)c1ccc2c(c1)nc(CN1CCC(c3cccc(OCc4ccc(Cl)cc4F)n3)CC1)n2C[C@@H]1CCO1 [Compound 86]
pEC50: 9.12

compound: Cc1cc2c(C#N)ccc(COc3cccc(C4=CCN(Cc5nc6cc(C(=O)Nc7cc(F)c8[nH]nc(C)c8c7)ccc6n5C[C@@H]5CCO5)CC4)n3)c2o1 [Compound 353]
pEC50: 9.36

compound: CC(C)c1n[nH]c2ccc(C(=O)Nc3ccc4c(c3)nc(C3CC35CCC(c3cccc(OCc6ccc(Cl)cc6F)n3)CC5)n4CC3CCO3)cc12 (stereo not drawn) [Compound 251]
pEC50: 8.65

compound: O=C(Nc1ccc2[nH]nc(C(F)F)c2c1)c1ccc2c(c1)nc(CN1CCC(c3cccc(OCc4ccc(Cl)cc4F)n3)CC1)n2C[C@@H]1CCO1 [Compound 115]
pEC50: 9.06

Now look at this one.
# get_value(readout='pEC50', item= Cc1n[nH]c2c(F)cc(NC(=O)c3ccc4c(c3)nc(CN3CCC(c5cccc(OCc6cc(F)c(C#N)s6)n5)CC3)n4C[C@@H]3CCO3)cc12 [Compound 375] )
9.00

----------
# assayTarget: GLP-1R (Homo sapiens)
# Sequence (P43220 24-463): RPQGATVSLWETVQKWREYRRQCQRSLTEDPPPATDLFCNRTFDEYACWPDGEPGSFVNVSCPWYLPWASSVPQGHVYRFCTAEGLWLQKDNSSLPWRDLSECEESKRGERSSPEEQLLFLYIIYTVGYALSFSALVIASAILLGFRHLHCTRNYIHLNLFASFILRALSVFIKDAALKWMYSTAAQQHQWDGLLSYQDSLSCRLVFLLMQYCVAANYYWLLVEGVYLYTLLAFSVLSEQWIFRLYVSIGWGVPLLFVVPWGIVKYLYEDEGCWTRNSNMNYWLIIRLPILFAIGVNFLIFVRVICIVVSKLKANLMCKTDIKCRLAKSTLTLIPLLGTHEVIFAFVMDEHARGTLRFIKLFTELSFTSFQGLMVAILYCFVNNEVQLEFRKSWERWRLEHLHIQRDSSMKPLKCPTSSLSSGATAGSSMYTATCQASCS
# assayRemarks: GLP-1R agonist cAMP stimulation assay (HTRF cAMP)
# experimentalSetup: HEK293 cell line expressing GLP-1 target; HTRF cAMP agonist mode, 30 min at RT
observationType: log10 of EC50 (log10 of the value in nM)
In our notation, the value equals log10 of EC50 in nM.

compound: Cc1cc(C(=O)Nc2ccc3c(c2)nc(C2CC24CCN(c2cccc(OCc5ccc(Cl)cc5F)n2)CC4)n3C[C@@H]2CCO2)cc2[nH]c(=O)[nH]c12 (some centres unmarked) [Compound 249]
assayTarget: GLP-1R (Homo sapiens)
observationType: log10 of EC50
reported: -0.36

compound: O=C(Nc1cc(F)c2[nH]ncc2c1)c1ccc2c(c1)nc(CN1CCC(c3cccc(OCc4ccc(Cl)cc4F)n3)CC1)n2C[C@@H]1CCO1 [Compound 102]
assayTarget: GLP-1R (Homo sapiens)
observationType: log10 of EC50
reported: 0.12

compound: CCc1n[nH]c2ccc(NC(=O)c3ccc4c(c3)nc(CN3CC=C(c5cccc(OCc6ccc(C#N)cc6F)n5)CC3)n4C[C@@H]3CCO3)cc12 [Compound 186]
assayTarget: GLP-1R (Homo sapiens)
observationType: log10 of EC50
reported: 0.33

compound: Cc1cc(NC(=O)c2ccc3c(c2)nc(CN2CC=C(c4cccc(OCc5ccc(C#N)cc5F)n4)CC2)n3C[C@@H]2CCO2)cc2c(C(F)F)n[nH]c12 [Compound 183]
assayTarget: GLP-1R (Homo sapiens)
observationType: log10 of EC50
reported: -0.12

compound: O=C(Nc1ccc2c(c1)nc(CN1CC=C(c3cccc(OCc4ccc(Cl)cc4F)n3)CC1)n2C[C@@H]1CCO1)c1ccc2[nH]nc(C(F)F)c2c1 [Compound 219]
assayTarget: GLP-1R (Homo sapiens)
observationType: log10 of EC50
reported: 0.08

# get_value(readout='log10 of EC50', item= Cc1n[nH]c2c(F)cc(C(=O)Nc3ccc4c(c3)nc(Cc3c(F)cc(-c5cccc6c5OC(C)(c5ccc(C#N)cc5F)O6)cc3F)n4CC3CCO3)cc12 (centres unmarked) [Compound 316] )
-0.27

Moving on to the next compound: Cc1n[nH]c2c(C)cc(NC(=O)c3ccc4c(c3)nc(CN3CC=C(c5cccc6c5OC(C)(c5ccc(C#N)cc5F)O6)CC3)n4CC3CCO3)cc12 (centres unmarked) [Compound 299]
-0.80

Moving on to the next compound: O=C(Nc1ccc2c(c1)nc(CN1CC=C(c3cccc(OCc4ccc(Cl)cc4F)n3)CC1)n2C[C@@H]1CCO1)c1ccc2[nH]ncc2c1 [Compound 204]
-0.20

Moving on to the next compound: Cc1n[nH]c2ccc(NC(=O)c3ccc4c(c3)nc(CN3CCC(c5cccc(OCc6ccc(Cl)cc6F)n5)CC3)n4C[C@@H]3CCO3)c(F)c12 [Compound 122]
0.51

Moving on to the next compound: Cc1n[nH]c2c(C(F)(F)F)cc(NC(=O)c3ccc4c(c3)nc(CN3CC=C(c5cccc6c5OC(C)(c5ccc(Cl)cc5F)O6)CC3)n4CC3CCO3)cc12 (centres unmarked) [Compound 295]
0.34

Data provenance is patent US20230271949A1.
